PROTOCOL: APR_HepG2_MitoMass_24hr: Apredica 24-hour HepG2 Assay for Mitochondrial Mass (AID 2282912)
TEST_CONTEXT: high-content imaging, actives raise or lower the signal
Active and inactive are the calls of the source. How the source made its calls: active means hit-call score of the fitted dose curve at least 0.9, where 1 is the maximum; inactive means score below 0.9.
Your reply should match one of these outcome classes. active, inactive

- CCCCc1nc2cccnc2n1Cc1ccc(-c2ccccc2-c2nnn[nH]2)cc1: active
- OCC(O)CO: inactive

Prompt: Would you mind telling me which call this test gave CCCCC(CC)COP(=O)(OCC(CC)CCCC)OCC(CC)CCCC (stereo not drawn) ?
Response: inactive

Prompt: // param item: `CN(C)C(=O)NC1(c2ccccc2)CCN(CCC[C@]2(c3ccc(Cl)c(Cl)c3)CCCN(C(=O)c3ccccc3)C2)CC1` ; yields the recorded call
Response: active

Prompt: Could you check what this test reported for `O=C(O)CN(CC(=O)O)CC(=O)O` ?
Response: inactive

Prompt: Recorded test call requested for `COC(=O)CCC(=O)OC`
Response: inactive

Prompt: Outcome? CC(=O)CC(c1ccccc1)c1c(O)c2ccccc2oc1=O (stereo not drawn)
Response: inactive

Prompt: Could you kindly confirm the outcome this assay logged for `NCCOCCOCCN` ?
Response: active

Prompt: # lookup: test call for `CN(C)CCCN(C)CCCN(C)C`
Response: inactive

###

PROTOCOL: CCTE_Shafer_MEA_acute_cross_correlation_area: CCTE's Neural Acute Assay for Area of Cross Correlation, Shafer Lab (AID 2284024);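 further: area under pooled inter-electrode spike cross-correlation near zero lag as percent change from own baseline; curves fitted for loss of cross-correlation area so actives lower synchrony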
Protocol: CCTE_Shafer_MEA_acute assay is conducted using Axion Biosystems 48 well microelectrode array (MEA) plates and Maestro recording system. Each well of the MEA plate contains a grid of 16 microelectrodes embedded in the culture surface. Electrically active cells, such as neurons, can be cultured over the electrodes, and electrical activity in these cells can be recorded extracellularly. […]
The source made the active and inactive calls. How the source made its calls: active means hit-call score of the fitted dose curve at least 0.9, where 1 is the maximum; inactive means score below 0.9.
Give your call using only these classes: active, inactive

These recorded examples may help you get a feel for the data.
* NC(=Nc1ccccc1)Nc1ccccc1 | inactive
* CCCCC(CC)COP(=O)(OCC(CC)CCCC)OCC(CC)CCCC (configuration not stated) | inactive
* C/C=C/c1ccc(OC)cc1 | inactive
* Oc1ccc(O)cc1 | inactive

Prompt: In this assay, the call recorded for `Cc1ccc(C(C)(C)C)c(O)c1` was what?
Response: inactive

Prompt: Entry `CN(C)C(=O)NC1(c2ccccc2)CCN(CCC[C@]2(c3ccc(Cl)c(Cl)c3)CCCN(C(=O)c3ccccc3)C2)CC1` : call = ?
Response: active

Prompt: Just curious, what result did `CSc1ccc(Oc2ccc(S(N)(=O)=O)cc2CN(C)C)cc1C` get here?
Response: inactive

###

Read-out: solute carrier (SLC22A1), SLC22A1 (gene 6580)
PROTOCOL: LTEA_HepaRG_SLC22A1: Life Technologies and Expression Analysis (LTEA) Assay for solute carrier (SLC22A1) using HepaRG (AID 2283524)
TEST_CONTEXT: mRNA level, 48 h; actives raise or lower the signal
Activity calls are given as the source filed them. The calls were made as follows: active = hit-call score of the fitted dose curve at least 0.9, where 1 is the maximum; inactive = score below 0.9.
Write down the outcome that applies. Available outcomes: active, inactive

Solved entries:
* CC1(C)C(=O)NC(=O)N1CO | inactive
* COc1ccc(OC(F)(F)F)cc1CN[C@H]1CCCN[C@H]1c1ccccc1 | active
* S=c1[nH]c2ccccc2s1 | inactive

Prompt: In this assay, the call recorded for `CCCCCCCCCCCCCCCCO` was what?
Response: inactive

Prompt: Look up the recorded call for `CC(=O)O[C@]1(C(C)=O)CC[C@H]2[C@@H]3C=C(Cl)C4=CC(=O)[C@@H]5C[C@@H]5[C@]4(C)[C@H]3CC[C@@]21C` in this test.
Response: active

Prompt: What did this assay record as the result for `O=C(O)CN(CC(=O)O)CC(=O)O` ?
Response: inactive

Prompt: Identify the outcome logged in this assay for the compound shown: `CN(C)C(=O)NC1(c2ccccc2)CCN(CC[C@@]2(c3ccc(F)c(F)c3)CN(C(=O)c3ccccc3)CCO2)CC1`
Response: active

###

ASSAYED_SYSTEM: Estrogen receptor (Homo sapiens) + Estrogen receptor beta (Homo sapiens) (UniProt P03372+Q92731)
Sequence (P03372 whole entry, looked up, the tested form may be a part): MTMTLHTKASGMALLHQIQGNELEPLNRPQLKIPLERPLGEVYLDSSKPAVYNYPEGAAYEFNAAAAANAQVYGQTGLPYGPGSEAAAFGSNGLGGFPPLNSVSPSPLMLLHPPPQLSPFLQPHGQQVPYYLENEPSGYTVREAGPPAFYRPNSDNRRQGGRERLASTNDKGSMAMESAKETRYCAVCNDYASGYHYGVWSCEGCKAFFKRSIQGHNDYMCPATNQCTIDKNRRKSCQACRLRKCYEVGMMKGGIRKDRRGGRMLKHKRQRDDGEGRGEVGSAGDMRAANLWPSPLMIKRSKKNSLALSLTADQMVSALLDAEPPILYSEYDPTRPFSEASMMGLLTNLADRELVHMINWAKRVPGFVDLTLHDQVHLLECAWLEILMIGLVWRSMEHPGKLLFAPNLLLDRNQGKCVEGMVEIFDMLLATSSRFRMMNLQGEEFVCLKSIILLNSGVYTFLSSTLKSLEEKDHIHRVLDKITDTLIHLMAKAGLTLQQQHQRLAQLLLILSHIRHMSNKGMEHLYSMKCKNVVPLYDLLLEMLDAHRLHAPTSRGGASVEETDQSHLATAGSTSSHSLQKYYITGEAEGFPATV
Sequence (Q92731 whole entry, looked up, the tested form may be a part): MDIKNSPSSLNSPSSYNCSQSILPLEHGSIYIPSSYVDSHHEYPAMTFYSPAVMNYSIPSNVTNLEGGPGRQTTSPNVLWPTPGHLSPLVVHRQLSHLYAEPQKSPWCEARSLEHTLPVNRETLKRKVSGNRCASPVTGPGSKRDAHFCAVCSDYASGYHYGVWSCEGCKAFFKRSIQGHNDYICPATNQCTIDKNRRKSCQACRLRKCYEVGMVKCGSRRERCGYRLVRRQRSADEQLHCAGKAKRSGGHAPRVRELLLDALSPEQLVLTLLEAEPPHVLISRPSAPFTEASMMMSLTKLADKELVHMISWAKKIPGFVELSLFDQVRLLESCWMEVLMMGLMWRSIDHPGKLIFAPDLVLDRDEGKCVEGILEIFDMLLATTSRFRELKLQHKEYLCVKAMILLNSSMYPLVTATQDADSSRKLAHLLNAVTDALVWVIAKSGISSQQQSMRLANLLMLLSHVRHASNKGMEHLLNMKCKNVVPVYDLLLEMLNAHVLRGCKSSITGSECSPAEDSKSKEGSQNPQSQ
PROTOCOL: OT_ER_ERaERb_1440: Odyssey Thera (OT) 24-hour HEK293T Protein-Complementation Assay for Estrogen Receptor-alpha/-beta Homodimer (AID 2283356);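 further: heteromer of ER alpha and ER beta binding domains; hits raise reporter fluorescence and both agonists and antagonists give an increase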
Inconclusive results are not listed. Calls of active or inactive are those of the source. Rule for the calls: active = hit-call score of the fitted dose curve at least 0.9, where 1 is the maximum; inconclusive = response in the unintended direction; inactive = score below 0.9.
Output constraint: value belongs to active, inactive

As a guide, the following entries are already answered.
* O=C(NS(=O)(=O)/C=C/c1cccs1)c1ccc(F)cc1Br | inactive
* CCCCCCC(CCCCCCCCCCC(=O)OCC(COC(C)=O)OC(C)=O)OC(C)=O (configuration not stated) | inactive
* COc1ccc(C(=O)Nc2nc3ccccc3c(NCc3ccccc3)c2C#N)cc1 | inactive

Prompt: What was the test verdict on `O=C(O)CC(O)(CC(=O)O)C(=O)O` ?
Response: inactive

Prompt: Fill in: this test's call for `CC(C)OC(=O)C(C)(C)Oc1ccc(C(=O)c2ccc(Cl)cc2)cc1` is ___
Response: inactive

Prompt: Returns: the outcome recorded for `CC1(C)C(=O)NC(=O)N1CO` in this assay.
Response: inactive

Prompt: Recorded call for `CSc1ccc(Oc2ccc(S(N)(=O)=O)cc2CN(C)C)cc1C` ?
Response: inactive

Prompt: I would be grateful if you could indicate the recorded call for `CN(C)C(=O)NC1(c2ccccc2)CCN(CCC[C@]2(c3ccc(Cl)c(Cl)c3)CCCN(C(=O)c3ccccc3)C2)CC1` .
Response: active

Prompt: In this assay, the call recorded for `O=C1CCCCC1` was what?
Response: inactive

Prompt: What did the test return for `CCc1nc(N)nc(N)c1-c1ccc(Cl)cc1` ?
Response: inactive

Prompt: // outcome(item) with item = CCC(C)N(C)C(=O)c1cc2ccccc2c(-c2ccccc2Cl)n1 (configuration not stated)
Response: inactive

Prompt: Tell me the recorded outcome of this test for `CCCCCCCCCC[N+](C)(C)[O-]` .
Response: inactive

###

ASSAYED_SYSTEM: Peroxisome proliferator-activated receptor gamma (Homo sapiens)
PROTOCOL: NVS_NR_hPPARg: NovaScreen (NVS) Nuclear Receptor Binding Assay for human Peroxisome Proliferator-activated Receptor gamma (PPARg) (AID 2283370)
Results filed as inconclusive are left out. Activity calls are given as the source filed them. Rule for the calls: active = hit-call score of the fitted dose curve at least 0.9, where 1 is the maximum; inconclusive = response in the unintended direction; inactive = score below 0.9.
PROPERTY_MEASURED: outcome

* C/C=C/C=C/C(=O)O | inactive
* CCCCCCC(CCCCCCCCCCC(=O)OCC(COC(C)=O)OC(C)=O)OC(C)=O (stereo not drawn) | inactive
* O=C(O)CC(O)(CC(=O)O)C(=O)O | inactive

###

ASSAYED_SYSTEM: Transcription factor Sp1 (Homo sapiens) (UniProt P08047)
Sequence (P08047 whole entry, looked up): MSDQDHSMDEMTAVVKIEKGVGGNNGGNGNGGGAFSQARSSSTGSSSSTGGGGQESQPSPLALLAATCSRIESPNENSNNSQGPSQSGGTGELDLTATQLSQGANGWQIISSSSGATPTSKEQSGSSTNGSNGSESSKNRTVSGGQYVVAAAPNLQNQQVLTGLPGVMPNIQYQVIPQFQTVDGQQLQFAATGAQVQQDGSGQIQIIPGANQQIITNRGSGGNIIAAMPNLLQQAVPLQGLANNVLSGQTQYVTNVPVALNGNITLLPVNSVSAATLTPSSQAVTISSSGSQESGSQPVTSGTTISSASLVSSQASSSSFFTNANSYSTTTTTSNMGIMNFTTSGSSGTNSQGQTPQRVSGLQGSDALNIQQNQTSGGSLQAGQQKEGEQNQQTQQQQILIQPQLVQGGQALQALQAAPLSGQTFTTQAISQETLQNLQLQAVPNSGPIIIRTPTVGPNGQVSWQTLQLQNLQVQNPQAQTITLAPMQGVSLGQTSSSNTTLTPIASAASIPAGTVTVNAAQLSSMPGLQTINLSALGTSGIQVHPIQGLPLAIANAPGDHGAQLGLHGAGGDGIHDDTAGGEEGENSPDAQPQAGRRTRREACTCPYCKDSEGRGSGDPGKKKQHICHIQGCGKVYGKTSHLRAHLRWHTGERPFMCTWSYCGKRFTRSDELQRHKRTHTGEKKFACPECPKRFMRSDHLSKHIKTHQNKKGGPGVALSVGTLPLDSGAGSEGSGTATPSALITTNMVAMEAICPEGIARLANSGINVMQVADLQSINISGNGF
PROTOCOL: ATG_Sp1_CIS: Attagene CIS-FACTORIAL HepG2 Assay for human Specificity Protein 1 (Sp1) (AID 2282961)
TEST_CONTEXT: HepG2 Sp1 cis-reporter transcription, actives raise or lower the signal
The source made the active and inactive calls. Rule for the calls: active = hit-call score of the fitted dose curve at least 0.9, where 1 is the maximum; inactive = score below 0.9.
One label from this list, please: YES (active), NO (inactive)

Examples from the recorded data:
* O=[Si]=O | NO
* O=C(O)c1cccnc1 | NO
* O=C(Oc1ccccc1)c1cccc(C(=O)Oc2ccccc2)c1 | NO
* O=C(O)CN(CC(=O)O)CC(=O)O | NO
* CN(C)C(=O)NC1(c2ccccc2)CCN(CCC[C@]2(c3ccc(Cl)c(Cl)c3)CCCN(C(=O)c3ccccc3)C2)CC1 | YES
* CCCC(=O)O | NO

# next molecule below
Prompt: Status in this test for `COc1ccc(C(=O)Nc2nc3ccccc3c(NCc3ccccc3)c2C#N)cc1` ?
Response: NO

###

Read-out: Cyclin Dependent Kinase Inhibitor 1A (CDKN1A), CDKN1A (gene 1026)
PROTOCOL: LTEA_HepaRG_CDKN1A: Life Technologies and Expression Analysis (LTEA) Assay for Cyclin Dependent Kinase Inhibitor 1A (CDKN1A) using HepaRG (AID 2283450)
TEST_CONTEXT: mRNA level, 48 h; actives raise or lower the signal
Calls of active or inactive are those of the source. How the source made its calls: active means hit-call score of the fitted dose curve at least 0.9, where 1 is the maximum; inactive means score below 0.9.
Field 'call' accepts active, inactive

- O=Cc1ccccc1C=O: inactive
- CC(C)(O)c1ccc(CNC(=O)c2cccnc2Oc2ccc(F)cc2)cc1: inactive
- CCCC[C@H]1CN(CC2CCOCC2)C(=O)OC12CCN(C1(C)CCN(C(=O)c3c(C)ncnc3C)CC1)CC2: inactive
- O=C1c2c(O)cccc2Cc2cccc(O)c21: inactive
- CC(=O)O[C@]1(C(C)=O)CC[C@H]2[C@@H]3C=C(Cl)C4=CC(=O)[C@@H]5C[C@@H]5[C@]4(C)[C@H]3CC[C@@]21C: inactive
- N[C@@H](Cc1c[nH]c2ccccc12)C(=O)O: inactive

Prompt: In this assay, the call recorded for `O=C1NC(=O)C(c2ccccc2)(c2ccccc2)N1` was what?
Response: inactive

Prompt: Given CCCCC(CC)COP(=O)(OCC(CC)CCCC)OCC(CC)CCCC (centres undefined) , state the outcome it received in this test.
Response: inactive

Prompt: Dear colleague, could you share the recorded outcome for `O=C1OC(c2ccc(O)cc2)(c2ccc(O)cc2)c2ccccc21` when you have a moment?
Response: inactive
